Sourced from ChEMBL document CHEMBL3044800

target: ATP-dependent translocase ABCB1 (Homo sapiens); experiment: Inhibition of MDR1 (unknown origin)-mediated rhodamine 123 uptake expressed in mouse L5178Y cells assessed as fluorescence activity ratio at 4 uM by flow cytometry relative to untreated control; format: cell-based
Sequence (P08183 whole entry): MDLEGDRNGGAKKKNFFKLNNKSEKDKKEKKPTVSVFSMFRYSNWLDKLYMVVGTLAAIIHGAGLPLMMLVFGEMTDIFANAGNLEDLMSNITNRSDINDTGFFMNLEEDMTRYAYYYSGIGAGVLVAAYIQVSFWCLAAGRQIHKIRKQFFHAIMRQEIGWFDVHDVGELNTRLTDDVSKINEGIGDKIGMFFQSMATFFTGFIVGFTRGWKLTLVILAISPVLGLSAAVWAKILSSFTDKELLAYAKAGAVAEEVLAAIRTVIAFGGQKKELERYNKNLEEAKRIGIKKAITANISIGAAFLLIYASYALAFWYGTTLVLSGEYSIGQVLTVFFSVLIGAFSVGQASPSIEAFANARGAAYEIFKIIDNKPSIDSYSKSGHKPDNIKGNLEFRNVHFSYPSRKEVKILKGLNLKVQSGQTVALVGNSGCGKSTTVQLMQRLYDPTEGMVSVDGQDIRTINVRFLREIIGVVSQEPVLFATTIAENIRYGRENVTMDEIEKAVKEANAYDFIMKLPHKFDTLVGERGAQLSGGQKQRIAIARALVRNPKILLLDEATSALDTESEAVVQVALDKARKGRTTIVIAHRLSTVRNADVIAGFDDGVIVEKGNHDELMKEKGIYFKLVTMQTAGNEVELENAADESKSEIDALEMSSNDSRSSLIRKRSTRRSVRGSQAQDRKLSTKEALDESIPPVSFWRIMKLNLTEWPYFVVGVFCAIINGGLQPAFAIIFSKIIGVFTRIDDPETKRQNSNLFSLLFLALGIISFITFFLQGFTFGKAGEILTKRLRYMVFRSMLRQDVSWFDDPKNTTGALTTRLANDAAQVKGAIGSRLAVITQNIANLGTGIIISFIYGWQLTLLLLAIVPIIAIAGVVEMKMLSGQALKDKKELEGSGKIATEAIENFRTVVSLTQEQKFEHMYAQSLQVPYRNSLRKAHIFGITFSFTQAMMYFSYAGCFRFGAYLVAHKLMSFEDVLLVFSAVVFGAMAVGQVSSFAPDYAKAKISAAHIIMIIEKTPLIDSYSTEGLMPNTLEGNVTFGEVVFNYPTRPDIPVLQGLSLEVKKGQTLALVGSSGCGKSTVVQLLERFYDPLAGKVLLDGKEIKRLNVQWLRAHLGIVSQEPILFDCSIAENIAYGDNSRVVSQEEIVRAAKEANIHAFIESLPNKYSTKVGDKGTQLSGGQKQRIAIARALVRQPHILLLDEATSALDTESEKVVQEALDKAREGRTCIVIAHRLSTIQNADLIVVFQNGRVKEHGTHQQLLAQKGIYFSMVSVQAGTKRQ
Measured RLU accompanies every entry in the list below.

{"compound": "COc1cc(C2NC(=O)NC(C)=C2C(=O)c2ccccc2)cc(OC)c1OC (configuration not stated)", "RLU": 0.96}
{"compound": "CC1=C(C(=O)c2ccccc2)C(c2c[nH]c3ccccc23)NC(=O)N1 (configuration not stated)", "RLU": 78.56}
{"compound": "CC1=C(C(=O)c2ccccc2)C(c2ccccc2[N+](=O)[O-])NC(=O)N1 (configuration not stated)", "RLU": 0.94}
{"compound": "CC1=C(C(=O)c2ccccc2)C(c2ccc(Cl)cc2)NC(=S)N1 (configuration not stated)", "RLU": 1.03}
{"compound": "CC1=C(C(=O)c2ccccc2)C(c2ccc(Cl)cc2)NC(=O)N1 (configuration not stated)", "RLU": 0.96}
{"compound": "CC1=C(C(=O)c2ccccc2)C(c2ccccc2)NC(=O)N1 (configuration not stated)", "RLU": 1.09}
{"compound": "CC1=C(C(=O)c2ccccc2)C(c2ccccc2)NC(=S)N1 (configuration not stated)", "RLU": 0.97}
{"compound": "CC1=C(C(=O)c2ccccc2)C(c2c3ccccc3cc3ccccc23)NC(=O)N1 (configuration not stated)", "RLU": 4.57}
{"compound": "CC1=C(C(=O)c2ccccc2)C(c2ccccc2[N+](=O)[O-])NC(=S)N1 (configuration not stated)", "RLU": 0.88}
{"compound": "CC1=C(C(=O)c2ccccc2)C(c2cc(Br)c(O)c(Br)c2)NC(=O)N1 (configuration not stated)", "RLU": 0.82}
{"compound": "COc1ccc(OC)c(C2NC(=O)NC(C)=C2C(=O)c2ccccc2)c1 (configuration not stated)", "RLU": 36.85}
{"compound": "COc1cc(C2NC(=S)NC(C)=C2C(=O)c2ccccc2)cc(OC)c1OC (configuration not stated)", "RLU": 0.93}
